# Test system: L1210 leukemia ip in BDF1 mice, survival T/C
# TEST_NAME: NCI In Vivo Anticancer Drug Screen. Data for tumor model L1210 Leukemia (intraperitoneal) in B6D2F1 (BDF1) mice
# CONDITION_INFO: endpoint: mean survival time; dose: 50.0 mg/kg/injection; schedule: Q04DX003 (ip); vehicle: carboxymethylcellulose (CMC); higher = longer survival
Toxic doses and inconclusive results are not listed.
Catalogue of compounds with associated T/C
PROPERTY_LABEL: T/C

[[record]]
structure_smiles = "COc1ccc(OC(=O)Nc2ccc(F)cc2)cc1"
property_label = "T/C"
measured_result = "101 % of control"

[[record]]
structure_smiles = "COc1ccc(OCC(=O)N2CCCCCC2)cc1"
property_label = "T/C"
measured_result = "103 % of control"

[[record]]
structure_smiles = "CC[Si](C)(C)N1CC1"
property_label = "T/C"
measured_result = "94 % of control"

[[record]]
structure_smiles = "O=C(Nc1ccc(F)cc1)Nc1cccc(O)c1"
property_label = "T/C"
measured_result = "101 % of control"


###

# Test system: L1210 leukemia ip in BDF1 mice, survival T/C
# TEST_NAME: NCI In Vivo Anticancer Drug Screen. Data for tumor model L1210 Leukemia (intraperitoneal) in B6D2F1 (BDF1) mice
# CONDITION_INFO: endpoint: mean survival time; dose: 200.0 mg/kg/injection; schedule: Q04DX002 (ip); vehicle: saline; higher = longer survival
Toxic doses and inconclusive results are not listed.
PROPERTY_LABEL: T/C

[[record]]
compound = "Nc1ccc(S(=O)(=O)Nc2cnc3ccccc3n2)cc1"
measured_result = "94 % of control"

[[record]]
compound = "O=C(Nc1ccccc1)Nc1cccc([N+](=O)[O-])c1"
measured_result = "92 % of control"

[[record]]
compound = "COC(=O)COc1ccc(Cl)cc1Cl"
measured_result = "107 % of control"

[[record]]
compound = "CCCOC(=O)C(C)(O)C(Cl)c1ccccc1 (configuration not stated)"
measured_result = "117 % of control"

[[record]]
compound = "CCOC(=O)NCC(CCCN1CCOCC1)(c1cccc2ccccc12)C(C)CC (configuration not stated)"
measured_result = "106 % of control"

[[record]]
compound = "Cc1nc(=S)[nH][nH]1"
measured_result = "94 % of control"

[[record]]
compound = "Cc1nonc1C(=O)O"
measured_result = "87 % of control"


###

# System: L1210 leukemia ip in BDF1 mice, survival T/C
# TEST_NAME: NCI In Vivo Anticancer Drug Screen. Data for tumor model L1210 Leukemia (intraperitoneal) in B6D2F1 (BDF1) mice
# CONDITION_INFO: endpoint: mean survival time; dose: 200.0 mg/kg/injection; schedule: Q01DX001 (ip); vehicle: saline; higher = longer survival
Inconclusive results and toxic doses are left out.
PROPERTY_LABEL: T/C

[[record]]
compound = "COC(=O)C(CSSCC(NC(=O)c1ccccc1)C(=O)OC)NC(=O)c1ccccc1 (configuration not stated)"
measured_result = "97 % of control"

[[record]]
compound = "Cc1ccc(C)c2c1[nH]c1c(C)c3ccncc3c(C)c12"
measured_result = "96 % of control"

[[record]]
compound = "CC(=O)NC(CO)(CO)CO"
measured_result = "102 % of control"

[[record]]
compound = "CCOC(=O)C1CC(=O)C(C(=O)OCC)CC1=O (configuration not stated)"
measured_result = "95 % of control"

[[record]]
compound = "CCSCN1CCN(CSCC)C(C)C1 (configuration not stated)"
measured_result = "106 % of control"

[[record]]
compound = "O=C(Nc1ccc(N=Nc2ccccc2)cc1)C(F)(F)F"
measured_result = "109 % of control"

[[record]]
compound = "Cc1cccc(C)c1C1CC1S(=O)(=O)c1ccccc1 (configuration not stated)"
measured_result = "98 % of control"

[[record]]
compound = "CC(C)(C)N1CC(C(=O)c2ccccc2)C1c1ccccc1 (configuration not stated)"
measured_result = "94 % of control"

[[record]]
compound = "Cc1cccc(OCCOc2cccc(C)c2)c1"
measured_result = "94 % of control"

[[record]]
compound = "COC1CCS(=O)(=O)C1 (configuration not stated)"
measured_result = "94 % of control"

[[record]]
compound = "Cc1cc2oc(=O)c3c(c2c(O)c1CN1CCN(C)CC1)CCCC3"
measured_result = "92 % of control"

[[record]]
compound = "COc1ccccc1NC(=O)C(C(C)=O)C(c1cccc([N+](=O)[O-])c1)C(C(C)=O)C(=O)Nc1ccccc1OC (configuration not stated)"
measured_result = "96 % of control"

